- Test system: BALB/c 3T3 (CCL-163) cells
Record form. Attribute: PIF 1. Fill in for each entry.
Form: value (number only, do not type unit).

Find the recorded PIF 1 belonging to CN(C)c1ccc(O)c2c1CC1CC3CC(O)=C(C(N)=O)C(=O)C3(O)C(O)=C1C2=O (stereo not shown) [COL 10, 4-dedimethylaminominocycline] and report it.
1.82

// PIF 1 lookup, key: CC1c2ccc(NC(=O)CN(C)C)c(O)c2C(=O)C2=C(O)C3(O)C(=O)C(C(N)=O)=C(O)CC3C(O)C21 (stereo not shown) [COL 802]
1.0

Quick check: PIF 1 of CN(C)c1ccc2c(c1O)C(=O)C1=C(O)C3(O)C(=O)C(C(N)=O)=C(O)CC3CC1C2 (stereo not shown) [COL 306] ?
1.64

Entry under review: NC(=O)C1=C(O)CC2CC3Cc4c(N)ccc(O)c4C(=O)C3=C(O)C2(O)C1=O (stereo not shown) [COL 307] . Reported PIF 1?
1.17

I have this compound here, NC(=O)C1=C(O)CC2CC3Cc4ccc([N+](=O)[O-])c(O)c4C(=O)C3=C(O)C2(O)C1=O (stereo not shown) [COL 303] , and I need its recorded PIF 1.
5.27

Value lookup for PIF 1; key = NC(=O)C1=C(O)C[C@@H]2C[C@@H]3Cc4cccc(O)c4C(=O)C3=C(O)[C@]2(O)C1=O [COL 3]
647

// PIF 1 lookup, key: NC(=O)C1=C(O)CC2CC3Cc4ccc(N)c(O)c4C(=O)C3=C(O)C2(O)C1=O (stereo not shown) [COL 308]
1.0

Recorded values, source patent US8192749B2.
